Molecular target: human GnRH receptor (Homo sapiens, UniProt P30968)
Sequence (P30968 whole entry): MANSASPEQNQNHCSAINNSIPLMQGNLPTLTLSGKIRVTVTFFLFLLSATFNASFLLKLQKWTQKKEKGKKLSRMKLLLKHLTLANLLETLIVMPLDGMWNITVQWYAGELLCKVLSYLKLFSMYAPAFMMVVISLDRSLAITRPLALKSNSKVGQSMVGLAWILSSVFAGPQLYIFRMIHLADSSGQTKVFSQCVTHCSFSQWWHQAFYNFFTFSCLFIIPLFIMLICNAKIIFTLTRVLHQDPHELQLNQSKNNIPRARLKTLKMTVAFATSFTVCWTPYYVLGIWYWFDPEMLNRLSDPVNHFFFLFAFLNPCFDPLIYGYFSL
Experiment: IP-One HTRF assay with buserelin (at EC80) stimulation
Conditions: CHO cells stably expressing human GnRH receptor, read-out: Potency in IP-One HTRF assay, given as IC50
pIC50: −log10 of the molar value.
Rule: pIC50 of 7 or more gives Met; anything lower gives Not met.

- compound: "O=C(NCC1CC1)c1ccc2c(c1)C1(CCS(=O)(=O)CC1)C(C1CC1)N2S(=O)(=O)c1ccc(F)cc1 (single isomer, unassigned) [Example 35.1]"
  category: "Not met"
- compound: "COc1cccc(S(=O)(=O)N2c3ccc(C(=O)Nc4cccc(S(N)(=O)=O)c4)cc3C3(CCS(=O)(=O)CC3)C2C2CC2)c1 (single isomer, unassigned) [Example 42.1]"
  category: "Not met"
- compound: "O=C(NCc1ncccc1C(F)(F)F)c1ccc2c(c1)C1(CCS(=O)(=O)CC1)C(C1CC1)N2S(=O)(=O)c1cccc(OC(F)(F)F)c1 (stereo not drawn) [Example 84]"
  category: "Not met"
- compound: "COC(=O)c1cccc(NC(=O)c2ccc3c(c2)C2(CCS(=O)(=O)CC2)C(C2CC2)N3S(=O)(=O)c2cccc(OC(F)(F)F)c2)c1 (stereo not drawn) [Example 82]"
  category: "Not met"
- compound: "CC1N(S(=O)(=O)c2ccc(F)cc2)c2ccc(C(=O)NCc3ncccc3Cl)cc2C12CCOCC2 (racemic) [Example 1]"
  category: "Not met"

Query block: Evaluate COc1cccc(S(=O)(=O)N2c3ccc(C(=O)NCc4ccccc4C(F)(F)F)cc3C3(CCS(=O)(=O)CC3)C2C2CC2)c1 (single isomer, unassigned) [Example 40.1] : pIC50 at minimum 7?
Result block: Met

Query block: Queued: O=C(NCC1CC1)c1ccc2c(c1)C1(CCS(=O)(=O)CC1)C(C1CC1)N2S(=O)(=O)c1ccc(F)cc1 (stereo not drawn) [Example 35]
Result block: Not met
